Tested on: SK-GT-4 (Esophageal Adenocarcinoma);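 also: after 72 h of two-drug dosing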
Assay remarks: Bliss excess, mean over the matrix (fraction); higher = more synergy
Form field: Bliss excess (one value per entry).
Parameter measured: Bliss excess

CN(CCO)CC[C@H](CSc1ccccc1)Nc1ccc(S(=O)(=O)NC(=O)c2ccc(N3CCC([C@@H](O)c4ccccc4-c4ccc(Cl)cc4)CC3)cc2)cc1S(=O)(=O)C(F)(F)F [AZD4320] + Nc1ccn([C@@H]2O[C@H](CO)[C@@H](O)C2(F)F)c(=O)n1 [Gemcitabine] (first compound max 1 µM, 7x7, partner max 0.3 µM)
-0.0288
CCc1c2c(nc3ccc(O)cc13)-c1cc3c(c(=O)n1C2)COC(=O)[C@]3(O)CC [SN-38] + O=C(c1cc(Cc2n[nH]c(=O)c3ccccc23)ccc1F)N1CCN(C(=O)C2CC2)CC1 [Olaparib] (first compound max 0.3 µM, 7x7, partner max 10 µM)
0.0257
CS(=O)(=O)CCNCc1ccc(-c2ccc3ncnc(Nc4ccc(OCc5cccc(F)c5)c(Cl)c4)c3c2)o1 [Lapatinib] + NC1(c2ccc(-c3nc4ccn5c(=O)[nH]nc5c4cc3-c3ccccc3)cc2)CCC1 [MK-2206] (first compound max 10 µM, 7x7, partner max 10 µM)
0.0402
